B1: Cyclin-F, residues 28 to 80; numbered along this chain, P41002 (parent)
chain: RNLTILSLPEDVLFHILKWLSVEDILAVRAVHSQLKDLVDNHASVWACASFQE

Variants of: B1
TEST_DETAILS: abundance fitness (aPCA) (normalised: wild type 0, dead -1); higher = more abundant; growth selection in yeast, the domain comes from the species named
EXPERIMENTAL_PARAMETERS: Homo sapiens
The entries below come with measured abundance fitness values attached.
Give the figure by itself; no unit, no explanation.

Worked examples follow.
Q34T: 0.004
C48N: 0.184
H15R: 0.222

Ask | Entry under review: L3P . Reported abundance fitness?
Reply | -0.322

Ask | Entry under review: D11I . Reported abundance fitness?
Reply | -0.43

Ask | Entry under review: A30R . Reported abundance fitness?
Reply | 0.053

Ask | Entry under review: P9H . Reported abundance fitness?
Reply | -0.949

Ask | Entry under review: V12W . Reported abundance fitness?
Reply | -0.851

Ask | Entry under review: F51H . Reported abundance fitness?
Reply | -0.123

Ask | Entry under review: D37N . Reported abundance fitness?
Reply | -0.017

Ask | Entry under review: T4M . Reported abundance fitness?
Reply | -0.695

Ask | Entry under review: S7D . Reported abundance fitness?
Reply | 0.101

Ask | Entry under review: L26R . Reported abundance fitness?
Reply | -0.169

Ask | Entry under review: N41L . Reported abundance fitness?
Reply | -0.306

Ask | Entry under review: V12G . Reported abundance fitness?
Reply | -0.764

Ask | Entry under review: D37L . Reported abundance fitness?
Reply | 0.03

Ask | Entry under review: Q34S . Reported abundance fitness?
Reply | -0.06

Ask | Entry under review: L17E . Reported abundance fitness?
Reply | -1.06

Ask | Entry under review: I5K . Reported abundance fitness?
Reply | -0.758

Ask | Entry under review: K36T . Reported abundance fitness?
Reply | -0.723
